Test system: 4 cell lines (A375, MDA-MB-231, PC-3, SK-OV-3)
Method Notes: Growth inhibition with DFMO, average over 4 cell lines
Assay type: cell-based
Details: Table 3; average over cell lines, with DFMO; read-out: AVG. EC50
Recorded Endpoint: EC50 (µM)
# number only, unit µM dropped from output

Find the measured EC50: item CC(C)[C@@H]1CC[C@@H](C)CC1NCCCC[C@@H](N)C(=O)NCCCNCCCCNCCCN (some centres unmarked) , target or system 4 cell lines (A375, MDA-MB-231, PC-3, SK-OV-3).
0.905

Try this compound too: NCCCNCCCCNCCCNC(=O)[C@H](N)CCCCNCC1CC2C=CC1C2 (some centres unmarked)
0.939

Try this compound too: CC(C)CC(C)NCCCCC(N)C(=O)NCCCNCCCCNCCCN (single isomer, unassigned)
1.3

Try this compound too: CCCCCCCCCCCCCC(=O)NCCCC[C@H](N)C(=O)NCCCNCCCCNCCCN
1.26

Try this compound too: CC(C)CCNCCCC[C@@H](N)C(=O)NCCCNCCCCNCCCN
1.52

----------
Test system: SK-OV-3
Method Notes: Growth inhibition assay, PA alone, SK-OV-3
Assay type: cell-based
Details: PA alone (no DFMO), six days; repeat determinations; read-out: Cell Line IC50 SK-OV-3
pIC50: −log10 of the molar value.
Recorded Endpoint: pIC50

Entry Cc1cc(C)c(S(=O)(=O)NC(CCCCN)C(=O)NCCCNCCCCNCCCN)c(C)c1 (stereo not shown) : reported pIC50 = ?
< 4.52

Try this compound too: CCS(=O)(=O)N[C@@H](CCCCN)C(=O)NCCCNCCCCNCCCN
< 4.52

Try this compound too: NCCCNCCCCNCCCNC(=O)[C@H](N)CCCCNCC1CC2CCC1C2 (stereo partly shown)
< 4.00

Try this compound too: CC(C)(C)CCNCCCC[C@H](N)C(=O)NCCCNCCCCNCCCN
< 4.00

Try this compound too: Cc1cc(C)c(S(=O)(=O)NCCCC[C@@H](N)C(=O)NCCCNCCCCNCCCN)c(C)c1
< 4.52

Try this compound too: CCCCCCCCCCCCCCCCS(=O)(=O)NCCCC[C@H](NS(=O)(=O)CCCCCCCCCCCCCCCC)C(=O)NCCCNCCCCNCCCN
4.70

Try this compound too: CCCCCCCC/C=C\CCCCCCCC(=O)NCCCC[C@H](N)C(=O)NCCCNCCCCNCCCN
< 4.52

Try this compound too: CCCCCCCCCCCCCCCC(=O)NCCCC[C@H](NC(=O)CCCCCCCCCCCCCCC)C(=O)NCCCNCCCCNCCCN
5.14

Try this compound too: CCCCCCCCCCCCCCCCCCCC(=O)NCCCC[C@H](N)C(=O)NCCCNCCCCNCCCN
< 5.52

Try this compound too: CN(C)c1cccc2c(S(=O)(=O)NCCCC[C@H](N)C(=O)NCCCNCCCCNCCCN)cccc12
< 4.52

Try this compound too: Cc1cc(C)c(S(=O)(=O)NCCCC[C@H](N)C(=O)NCCCNCCCCNCCCN)c(C)c1
< 4.52

Try this compound too: CCS(=O)(=O)NCCCC[C@@H](N)C(=O)NCCCNCCCCNCCCN
< 4.52

Try this compound too: CCCCCCCCCCCCCCCCNCCCC[C@H](N)C(=O)NCCCNCCCCNCCCN
< 5.52

Try this compound too: CCCCCCCC/C=C/CCCCCCCC(=O)NCCCC[C@H](N)C(=O)NCCCNCCCCNCCCN
< 4.52

Try this compound too: CCCCCCCC(=O)NCCCC[C@H](N)C(=O)NCCCNCCCCNCCCN
< 4.52

Try this compound too: NCCCNCCCCNCCCNC(=O)[C@@H](N)CCCCNC(=O)c1ccc(N)cc1
< 4.52

Try this compound too: NCCCNCCCCNCCCNC(=O)[C@H](N)CCCCNC(=O)C(F)(F)C(F)(F)C(F)(F)F
< 4.00

Try this compound too: CCCCCCCNCCCC[C@@H](NCCCCCCC)C(=O)NCCCNCCCCNCCCN
4.17

Try this compound too: CCS(=O)(=O)NCCCC[C@H](N)C(=O)NCCCNCCCCNCCCN
< 4.52

Try this compound too: NCCCC[C@H](NC(=O)c1ccccc1)C(=O)NCCCNCCCCNCCCN
< 4.52

Try this compound too: CCCCC/C=C/C/C=C/CCCCCCCC(=O)NCCCC[C@H](N)C(=O)NCCCNCCCCNCCCN
< 4.52

Try this compound too: C[C@H](CCC(=O)NCCCC[C@H](N)C(=O)NCCCNCCCCNCCCN)[C@H]1CC[C@H]2[C@@H]3[C@H](O)C[C@@H]4C[C@H](O)CC[C@]4(C)[C@H]3C[C@H](O)[C@]12C
< 5.52

Try this compound too: CCCCCCCC/C=C\CCCCCCCC(=O)NCCCC[C@@H](N)C(=O)NCCCNCCCCNCCCN
< 4.52

Try this compound too: NCCCNCCCCNCCCNC(=O)[C@@H](CCCCNCC1CCCCC1)NCC1CCCCC1
< 4.00

Try this compound too: CCCCCCCC(=O)NC(CCCCN)C(=O)NCCCNCCCCNCCCN (stereo not shown)
< 4.52

----------
Tested on: PC-3
Method Notes: Growth inhibition assay, PA alone, PC-3
Assay type: cell-based
Details: Homo sapiens, PC-3, 144 h, PA alone (no DFMO), six days; repeat determinations; read-out: Cell Line IC50 PC-3
Give IC50 for every item shown.

Find the measured IC50: item CCCC(=O)NCCC[C@@H](N)C(=O)NCCCNCCCCNCCCN , target or system PC-3.
> 100 µM

Try this molecule too: CCCCCCCCC(=O)NCCCC[C@@H](N)C(=O)NCCCNCCCCNCCCN
> 30 µM

Try this molecule too: NCCCNCCCCNCCCNC(=O)[C@H](N)CCCCNC(=O)CC1CC2CCC1C2 (stereo partly shown)
> 100 µM

Try this molecule too: NCCCNCCCCNCCCNC(=O)[C@H](N)CCCCNC(=O)c1ccc(-c2ccccc2)cc1
> 100 µM

Try this molecule too: CCCCCCCNCCCC[C@@H](N)C(=O)NCCCNCCCCNCCCN
> 100 µM

Try this molecule too: CC(C)[C@@H]1CC[C@@H](C)C[C@H]1OCC(=O)NCCCC[C@@H](N)C(=O)NCCCNCCCCNCCCN
28 µM

Try this molecule too: NCCCNCCCCNCCCNC(=O)[C@H](N)CCCCNCC1CCCCC1
> 100 µM

Try this molecule too: NCCCNCCCCNCCCNC(=O)[C@H](N)CCCCNCC1CC2C=CC1C2 (stereo partly shown)
> 100 µM

Try this molecule too: CC(C)=CCC[C@H](C)CCNCCCC[C@@H](N)C(=O)NCCCNCCCCNCCCN
17.8 µM

Try this molecule too: NCCCNCCCCNCCCNC(=O)[C@H](N)CCCCNC(=O)c1ccco1
> 30 µM
